The reported measurements were obtained from patent US20250027068A1.

- assay.system: pooled human IgG (human IgG1, 2, 3 and 4) (human); note: test concentration or dose not given here
- test.method.notes: cell-based or functional assay
recorded.endpoint: Enzyme Activity Endpoint Assay: scIgG (ng/µL)
Give bare numbers, in ng/µL.

Please look at the items below and tell me Enzyme Activity Endpoint Assay: scIgG for each one, in order.
1. PRT-427 (enzyme) MTITSVWTKGVTPPTPEDFRYNNEDVLHAPYVANQGWYDITKTFDGKDNLLCGAATAGNMLHWWFDQNKEEIERYLKKHPEKQKIIFNNQELFDVKAAIDTKDSQTNSKLFNYFRDKAFPNLSARQLGVMPDLVLDMFINGYYLNLGKTQSTDVNRPYQDKDKRGGIFDAVFTRGVQTTLLTARHDLKNKGLNEISDLIKQELTEGKALALSHTYANVRINHVINLWGADFDAEGNLIAIYVTDSDANASIGMKKYFVGVNANGKVAISAKKIEGDNIGAQVLGLFTLSTGQDIWQKLS
2. PRT-444 (enzyme) MSQTEDSESLQRLRDIEDFQAEKKKQNVVYTKWLDGVDVKDHDFRKIVDGNIAYYATPLLNGRGFYDINKDFNRDSDKCAAAVAANMFHYWLDRNRDNVDRFLRQNPEKHGIIELPDGQLKLSDFLNTYESDDGYRDKSKLFDFISNNFNKPVWTDKLLDNYINGYAYNYKYGRTIEDPTKNTSKINFFKEVFNEKILTNNHSIRNQNEFSVLLSEALYTGKAIGLSYGPAGLRHSLGHIISVWGADLDADGNVVAIYVTDSDDKKLTIGDERVGLKRYKISTDDEGRLRLTAYEETHNTGGQIRGLWTLDTGKQAWADYFDKTEQTGTDQAEQ
3. PRT-443 (enzyme) MSQTEDSESLQRLRDIEDFQAEKKKQNVVYTKWLDGVDVKDHDFRKIVDGNIAYYATPLLNGRGFYDINKDFNRDSDKCAAAVAANMFHYWLDRNRDNVDRFLRQNPEKHGIIELPDEQLKLSDFLNTYESDDGYRDKSKLFDFISNNFNGPVWTDKLLDNYINGYAYNYKYGRTIEDPTKNTSKINFFKEVFNEKILTNNHSIRNQNEFSVLLSEALYTGKAIGLSYGPAGLRHSLGHIISVWGADLDADGNVVAIYVTDSDDKKLTIGDERVGLKRYKISTDDEGRLRLTAYEETHNTGGQIRGLWTLDTGKQAWADYFDKTEQTGTDQAEQ
4. PRT-403 (enzyme) MVTSVWTKGVTPPADFTQGEDVFHAPYVANQGWYDITKTFNGKDDLLCGAATAGNMLHWWFDQNKEYIEAYLKKHPEKQKIMFGDQELLDVRKAINTKGSQKNSELFNYFRDKAFPNLSARRLGVMPDLVLDMFINGYYLNVTKTQTTDVNRTYQEKDKRGGIFDAVFTRGDQSKLLTSRHDFKEKGLKEISDLIKQELTEGKALGLSHTYANVRISHVINLWGADFDSDGNLKAIYVTDSDSNASIGMKKYFVGVNSAGKVAISAKEIKEDNIGAQVLGLFTLSTGQDIWNQTN
5. PRT-385 (enzyme) MVTSVWTKGVTPPTNFTYGEDVLHAPYVANQGWYDITKTFNGKDDLLCGAATAGNMLHWWFDQNKEQIENYLKKHPEKQKINFNGEQMFDVKEAIDTKDSQLDSKLFEYFKEKAFPYLSTKHLGVFPDHVIDMFINGYRLSLTNHGPTPVKRGSKDPRGGIFDAVFTRGDQSKLLTNRHDFKEKTLKEISDLIKQELTEGKALGISHTYANGRINHVINLWGADFDAEGNLEAIYVTDSDSNASIGMKKYFVGVNSNGKVAISAKEIEEDNIGAQVLGLFTLSTGQDIWNQTN

*A*
1: 139; 2: 286; 3: 535; 4: 40; 5: 56
